Cited source: patent US20130040944A1

- tested on: human mGluR4 (Homo sapiens, UniProt Q14833)
- Sequence (Q14833 33-912): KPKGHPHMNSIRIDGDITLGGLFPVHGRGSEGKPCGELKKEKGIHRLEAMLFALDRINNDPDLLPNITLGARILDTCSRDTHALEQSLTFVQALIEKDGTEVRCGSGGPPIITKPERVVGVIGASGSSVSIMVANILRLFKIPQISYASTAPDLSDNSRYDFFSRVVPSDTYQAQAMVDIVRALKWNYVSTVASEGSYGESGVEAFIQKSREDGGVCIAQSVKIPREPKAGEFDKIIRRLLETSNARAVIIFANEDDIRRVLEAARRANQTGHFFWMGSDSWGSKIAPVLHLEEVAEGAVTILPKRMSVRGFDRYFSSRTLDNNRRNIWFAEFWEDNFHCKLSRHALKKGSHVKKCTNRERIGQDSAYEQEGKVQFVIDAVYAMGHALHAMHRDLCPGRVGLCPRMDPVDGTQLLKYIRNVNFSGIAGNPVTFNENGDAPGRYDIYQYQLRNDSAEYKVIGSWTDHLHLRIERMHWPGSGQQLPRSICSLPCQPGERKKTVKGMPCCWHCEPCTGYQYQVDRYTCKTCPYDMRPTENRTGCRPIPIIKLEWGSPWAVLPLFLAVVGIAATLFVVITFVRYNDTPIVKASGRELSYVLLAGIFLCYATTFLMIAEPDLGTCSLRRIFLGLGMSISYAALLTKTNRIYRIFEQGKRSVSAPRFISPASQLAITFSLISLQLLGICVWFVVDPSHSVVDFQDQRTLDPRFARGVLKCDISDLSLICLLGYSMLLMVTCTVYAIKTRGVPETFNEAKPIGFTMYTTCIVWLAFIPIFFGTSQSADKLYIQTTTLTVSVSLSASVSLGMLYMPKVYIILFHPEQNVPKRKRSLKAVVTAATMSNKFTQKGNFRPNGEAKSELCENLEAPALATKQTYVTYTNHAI
- procedure details: potentiation of human mGluR4 in transfected CHO cells, Ca2+-sensitive dye fluorescence, EC20 agonist
- run conditions: hEC50, human mGluR4 potentiation; unit inferred
property: EC50 (nM)

Here are 3 molecules together with their reported answers.
O=C(Nc1ccn(S(=O)(=O)Cc2c(F)cccc2F)c1)c1nccs1	343
N#Cc1ccccc1S(=O)(=O)n1ccc(NC(=O)c2ccccn2)c1	489
Cc1ccc(S(=O)(=O)c2cc(NC(=O)c3ccccn3)cn2C)cc1	3680

(a) O=C(Nc1ccn(S(=O)(=O)c2ccc(F)c(F)c2F)c1)c1ccccn1
(b) Cc1noc(C)c1S(=O)(=O)n1ccc(NC(=O)c2ccccn2)c1
(c) O=C(Nc1ccn(S(=O)(=O)c2ccc3c(c2)OCO3)c1)c1ccccn1
(d) O=C(Nc1ccn(S(=O)(=O)Cc2ccc(F)cc2F)c1)c1ccco1
INPUT: Exam item: list the entries in increasing order of EC50. Dear reader, please state the labels in the requested order.
OUTPUT: c, a, d, b
(c: 110 nM, a: 301 nM, d: 3690 nM, b: 8320 nM)

(1) O=C(Nc1ccn(S(=O)(=O)c2ccc(Cl)cn2)c1)c1ccccn1
(2) COC(=O)c1ccc(S(=O)(=O)n2ccc(NC(=O)c3ccccn3)c2)cc1
(3) CC(=O)Oc1ccccc1C(=O)Nc1ccn(S(=O)(=O)c2cccc(C)c2)c1
(4) O=C(Nc1ccn(S(=O)(=O)c2ccc(Cl)c(Cl)c2)c1)c1ccccn1
INPUT: Please produce an ascending ranking of these molecules based on EC50. Answer by listing the labels in the order asked for.
OUTPUT: 1, 2, 4, 3
(1: 162 nM, 2: 285 nM, 4: 466 nM, 3: 1720 nM)

(1) O=C(Nc1ccn(S(=O)(=O)c2cc(F)c(F)cc2Cl)c1)c1ccccn1
(2) O=C(Nc1ccn(S(=O)(=O)c2cccc(Cl)c2F)c1)c1ccccn1
INPUT: In terms of reported EC50, does 1 or 2 have the smaller number? I would appreciate it if you answered with the label of your choice.
OUTPUT: 2

(1) O=C(Nc1ccn(S(=O)(=O)c2ccc(Cl)cc2F)c1)c1ccco1
(2) O=C(Nc1ccn(S(=O)(=O)c2ccccc2)c1)c1nccs1
INPUT: Compare reported EC50 values for 1 and 2 . Which is lower? Answer = label.
OUTPUT: 2

----------
- tested on: human mGluR4 (Homo sapiens, UniProt Q14833)
- procedure details: potentiation of human mGluR4 in transfected CHO cells, Ca2+-sensitive dye fluorescence, EC20 agonist
- run conditions: hEC50, human mGluR4 potentiation; unit inferred
property: EC50 (nM)

Sample answers from the record:
O=C(Nc1ccn(S(=O)(=O)Cc2cccc(F)c2)c1)c1ccco1 [Example 91]	6760
O=C(Nc1ccn(S(=O)(=O)Cc2ccc(F)cc2F)c1)c1nccs1 [Example 55]	1910
Cc1ccc(C)c(S(=O)(=O)n2ccc(NC(=O)c3ccccn3)c2)c1 [Example 81]	228

(1) Cc1nc(C)c(S(=O)(=O)n2ccc(NC(=O)c3ccccn3)c2)s1 [Example 127]
(2) COc1ccc(S(=O)(=O)n2ccc(NC(=O)c3ccccn3)c2)cn1 [Example 140]
INPUT: Lab log: flag the item ( 1 or 2 ) with the smaller EC50 figure. Your answer should be the label of the entry you select.
OUTPUT: 2

----------
- tested on: UniProt:Q14833
- procedure details: potentiation of human mGluR4 in transfected CHO cells, Ca2+-sensitive dye fluorescence, EC20 agonist
- run conditions: hEC50, human mGluR4 potentiation; unit inferred
property: EC50 (nM)

CC(c1ccccc1)S(=O)(=O)n1ccc(NC(=O)c2ccccn2)c1 (stereo not drawn)	2300

(a) O=C(Nc1ccn(S(=O)(=O)c2ccc(OC(F)F)cc2)c1)c1ccco1
(b) O=C(Nc1ccn(S(=O)(=O)c2cccc(C(F)(F)F)c2)c1)c1ccccn1
INPUT: Kindly identify which of a and b has the larger recorded EC50 value. Write the label of whichever entry you select.
OUTPUT: a

----------
- tested on: human mGluR4 (Homo sapiens)
- procedure details: potentiation of human mGluR4 in transfected CHO cells, Ca2+-sensitive dye fluorescence, EC20 agonist
- run conditions: hEC50, human mGluR4 potentiation; unit inferred
property: EC50 (nM)

Examples from the recorded data:
O=C(Nc1ccn(S(=O)(=O)Cc2ccc(F)cc2Cl)c1)c1ccccn1	125
O=C1CCc2ccc(S(=O)(=O)n3ccc(NC(=O)c4ccccn4)c3)cc2N1	917
Cc1cc(S(=O)(=O)n2ccc(NC(=O)c3ccccn3)c2)c(Cl)cc1Cl	21100

(A) O=C(Nc1ccn(S(=O)(=O)c2ccc(N3CCCC3=O)cc2)c1)c1ccccn1
(B) O=C(Nc1ccn(S(=O)(=O)c2cccc(F)c2)c1)c1ccccn1
INPUT: Compare reported EC50 values for A and B . Which is lower? Indicate which entry you chose by stating its label.
OUTPUT: B
(B: 178 nM, A: 543 nM)

(a) Cc1ccc(CS(=O)(=O)n2ccc(NC(=O)c3ccccn3)c2)cc1
(b) CC(c1ccccc1Cl)S(=O)(=O)n1ccc(NC(=O)c2ccccn2)c1 (stereo not drawn)
(c) O=C(Nc1ccn(S(=O)(=O)Cc2c(F)cccc2F)c1)c1ccccn1
(d) O=C(Nc1ccn(S(=O)(=O)c2cc(Cl)ccc2Cl)c1)c1ccccn1
INPUT: Write the entries in order, lowest recorded EC50 first. Arrange the labels as the request states and list them.
OUTPUT: d, c, a, b

----------
- tested on: human mGluR4 (Homo sapiens)
- procedure details: potentiation of human mGluR4 in transfected CHO cells, Ca2+-sensitive dye fluorescence, EC20 agonist
- run conditions: EC50 (nM), potentiation of EC20 agonist response; Table I
property: EC50 (nM)

Some solved entries appear below for comparison.
O=C(Nc1ccn(S(=O)(=O)Cc2ccccc2)c1)c1cc(F)ccn1	369
O=C(Nc1ccn(S(=O)(=O)c2ccccc2)c1)c1ccccc1	8170
Cc1cccc(C(=O)Nc2ccn(S(=O)(=O)Cc3ccccc3)c2)n1	9540

(A) O=C(Nc1ccn(S(=O)(=O)Cc2ccccc2)c1)c1ccco1
(B) O=C(Nc1ccn(S(=O)(=O)c2ccccc2)c1)c1ccccn1
(C) O=C(Nc1ccn(S(=O)(=O)Cc2ccccc2)c1)c1ccccc1
(D) O=C(Nc1ccn(S(=O)(=O)Cc2ccccc2)c1)c1cccc(F)n1
INPUT: Order the records, beginning with the lowest EC50 and ending with the highest. Kindly provide the labels arranged according to the requested ordering.
OUTPUT: B, D, C, A

(P) O=C(Nc1ccn(S(=O)(=O)Cc2ccccc2)c1)c1cscn1
(Q) O=C(Nc1ccn(S(=O)(=O)Cc2ccccc2)c1)c1ccccn1
(R) O=C(Nc1ccn(S(=O)(=O)c2ccccc2Cl)c1)c1ccccn1
INPUT: Ascending sort, EC50. Reply: labels, ordered per the request.
OUTPUT: R, Q, P

----------
- tested on: UniProtKB Q14833
- procedure details: potentiation of human mGluR4 in transfected CHO cells, Ca2+-sensitive dye fluorescence, EC20 agonist
- run conditions: CHO, read-out: % Glu Max
property: Emax (%)

Past entries and their recorded results:
O=C(Nc1ccn(S(=O)(=O)Cc2ccccc2)c1)c1ccccc1 [Example 6]	55
O=C(Nc1ccn(S(=O)(=O)Cc2ccc(Cl)c(Cl)c2)c1)c1ccccn1 [Example 34]	159
Cc1ccccc1S(=O)(=O)n1ccc(NC(=O)c2ccccn2)c1 [Example 9]	67
O=C(Nc1ccn(S(=O)(=O)c2ccccc2C(F)(F)F)c1)c1ccccn1 [Example 10]	101
O=C(Nc1ccn(S(=O)(=O)Cc2ccccc2)c1)c1ccncn1 [Example 45]	57
O=C(Nc1ccn(S(=O)(=O)Cc2ccccc2)c1)c1ccco1 [Example 1]	227
O=C(Nc1ccn(S(=O)(=O)c2ccccc2Cl)c1)c1ccccn1 [Example 11]	91
O=C(Nc1ccn(S(=O)(=O)c2ccccc2F)c1)c1ccccn1 [Example 8]	116
O=C(Nc1ccn(S(=O)(=O)c2ccc3ccccc3c2)c1)c1ccccn1 [Example 36]	58
O=C(Nc1ccn(S(=O)(=O)Cc2ccccc2)c1)c1ccccn1 [Example 2]	275

(a) O=C(Nc1ccn(S(=O)(=O)Cc2ccccc2)c1)c1nccs1 [Example 44]
(b) O=C(Nc1ccn(S(=O)(=O)c2ccccc2)c1)c1ccccc1 [Example 5]
(c) O=C(Nc1ccn(S(=O)(=O)c2ccccc2)c1)c1ccccn1 [Example 4]
INPUT: Put the compounds in ascending order of Emax. Please list the labels in the order you were asked to rank them.
OUTPUT: c, b, a
(c: 59%, b: 93%, a: 175%)

(1) O=C(Nc1ccn(S(=O)(=O)CCc2ccccc2)c1)c1ccccn1 [Example 40]
(2) Cc1cccc(C(=O)Nc2ccn(S(=O)(=O)Cc3ccccc3)c2)n1 [Example 43]
INPUT: Min Emax? 1 | 2 Pick one; state its label.
OUTPUT: 2
(2: 90%, 1: 152%)

----------
- tested on: human mGluR4 (Homo sapiens)
- procedure details: potentiation of human mGluR4 in transfected CHO cells, Ca2+-sensitive dye fluorescence, EC20 agonist
- run conditions: hEC50, human mGluR4 potentiation; unit inferred
pEC50: −log10 of the molar value.
property: pEC50

These recorded examples may help you get a feel for the data.
O=C(Nc1ccn(S(=O)(=O)c2ccc3c(c2)OCCO3)c1)c1ccccn1	7.34
O=C(Nc1ccn(S(=O)(=O)c2ccc(Cl)cn2)c1)c1ccco1	5.54

(1) O=C(Nc1ccn(S(=O)(=O)Cc2ccccc2Cl)c1)c1csnn1
(2) Cc1cccc(C)c1S(=O)(=O)n1ccc(NC(=O)c2ccco2)c1
(3) O=C(Nc1ccn(S(=O)(=O)c2ccco2)c1)c1ccccn1
(4) Cc1ccc(S(=O)(=O)n2ccc(NC(=O)c3ccccn3)c2)cc1Cl
INPUT: List these items ordered by pEC50, big to small. A complete answer lists every label in the requested sequence.
OUTPUT: 4, 1, 3, 2
